- Tested on: human Factor 11 mRNA
- procedureDetails: Antisense inhibition of human Factor 11 in HepG2 cells, electroporation, 8,000 nM (Example 30)
- Type: cell-based
- measurementSetup: electroporation, 8,000 nM antisense oligonucleotide
Strand notation (5' to 3'): a small letter for the sugar, then the base; units joined by * are phosphorothioate-linked, units joined directly phosphodiester-linked; [ ] holds rarer units or linkages, { } end groups; capitals alone tell only the bases. e = 2'-O-(2-methoxyethyl) (MOE); [5mC] = 5-methylcytosine; d = 2'-deoxy (DNA)
recordedMetric: Percent inhibition of human Factor 11 mRNA levels (%)
Report the value in % with no unit label.

>>> recordedvalue("445502 (antisense e[5mC]*eA*eT*eT*eG*eG*dT*dG*d[5mC]*dA*d[5mC]*dA*dG*dT*eT*eT*e[5mC]*eT*eG*eG) [compound 445502]")
83
>>> recordedvalue("445498 (antisense eG*eG*eT*eG*e[5mC]*eA*d[5mC]*dA*dG*dT*dT*dT*d[5mC]*dT*eG*eG*e[5mC]*eA*eG*eG) [compound 445498]")
83
>>> recordedvalue("445505 (antisense e[5mC]*eG*eG*e[5mC]*eA*eT*dT*dG*dG*dT*dG*d[5mC]*dA*d[5mC]*eA*eG*eT*eT*eT*e[5mC]) [compound 445505]")
89

Query (substance): 445504 (antisense eG*eG*e[5mC]*eA*eT*eT*dG*dG*dT*dG*d[5mC]*dA*d[5mC]*dA*eG*eT*eT*eT*e[5mC]*eT) [compound 445504] ; field requested: Percent inhibition of human Factor 11 mRNA levels 87

Query (substance): 445515 (antisense eT*eG*eG*e[5mC]*eA*eG*d[5mC]*dG*dG*dA*d[5mC]*dG*dG*d[5mC]*eA*eT*eT*eG*eG*eT) [compound 445515] ; field requested: Percent inhibition of human Factor 11 mRNA levels 75

Query (substance): 445535 (antisense eG*eG*eA*e[5mC]*eG*dG*d[5mC]*dA*dT*dT*dG*dG*dT*eG*e[5mC]*eA*e[5mC]*eA) [compound 445535] ; field requested: Percent inhibition of human Factor 11 mRNA levels 83

Query (substance): 445506 (antisense eA*e[5mC]*eG*eG*e[5mC]*eA*dT*dT*dG*dG*dT*dG*d[5mC]*dA*e[5mC]*eA*eG*eT*eT*eT) [compound 445506] ; field requested: Percent inhibition of human Factor 11 mRNA levels 86

Query (substance): 416853 (antisense eT*eT*eG*eG*eT*dG*d[5mC]*dA*d[5mC]*dA*dG*dT*dT*dT*d[5mC]*eT*eG*eG*e[5mC]*eA) [compound 416853] ; field requested: Percent inhibition of human Factor 11 mRNA levels 84

###

- procedureDetails: Hematology assays in cynomolgus monkeys (Example 45)
- Format: in vivo
- measurementSetup: day 29
recordedMetric: lymphocytes (%)
Report the value in % with no unit label.

>>> recordedvalue("ISIS 417002: MOE gapmer, nucleobases 1275 to 1318 of SEQ ID NO: 1 (Table 8) (antisense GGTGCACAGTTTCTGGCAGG; MOE gapmer, wing and gap sizes not given here)")
50

Query (substance): ISIS 416838: MOE gapmer, nucleobases 1018 to 1042 of SEQ ID NO: 1 (Table 6) (antisense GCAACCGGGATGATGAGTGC; MOE gapmer, wing and gap sizes not given here) ; field requested: lymphocytes 59

Query (substance): ISIS 416850: MOE gapmer, nucleobases 1275 to 1318 of SEQ ID NO: 1 (Table 8) (antisense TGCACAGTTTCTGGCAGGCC; MOE gapmer, wing and gap sizes not given here) ; field requested: lymphocytes 43

Query (substance): ISIS 416858: MOE gapmer, nucleobases 1275 to 1318 of SEQ ID NO: 1 (Table 8) (antisense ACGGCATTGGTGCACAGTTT; MOE gapmer, wing and gap sizes not given here) ; field requested: lymphocytes 51

Query (substance): ISIS 416864: MOE gapmer, nucleobases 1275 to 1318 of SEQ ID NO: 1 (Table 8) (antisense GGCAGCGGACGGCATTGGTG; MOE gapmer, wing and gap sizes not given here) ; field requested: lymphocytes 51
